The values you see were collected from ChEMBL document CHEMBL4376878.

test: Volume of distribution in Wistar rat at 0.5 mg/kg, iv by LC-MS/MS analysis; format: ADME, organism-based; details: in vivo
This listing pairs molecules with measured Vd.
Hi! Could you send only the number? It should be in L, unit omitted.

line.notation | measurement.kind | measured
N=C(N)NCCC[C@H](NC(=O)c1ccc(C(c2ccc(Cl)cc2)c2ccc(Cl)cc2)s1)C(=O)O | Vd | 0.3

**Query** Tell me its Vd given `N=C(N)NCCC[C@H](NC(=O)c1ccc(C(c2ccccc2)c2ccccc2)s1)C(=O)O` as the entry.
**Result** 0.4

* * *

This listing pairs molecules with measured clearance.
assay: Clearance in Wistar rat at 0.5 mg/kg, iv by LC-MS/MS analysis; format: ADME, organism-based; conditions: in vivo
Hi! Could you send only the number? It should be in mL/min/kg, unit omitted.

line.notation | clearance, mL/min/kg
N=C(N)NCCC[C@H](NC(=O)c1ccc(C(c2ccc(Cl)cc2)c2ccc(Cl)cc2)s1)C(=O)O | 4.6

Okay, now this molecule:
**Query** Tell me its clearance given `N=C(N)NCCC[C@H](NC(=O)c1ccc(C(c2ccccc2)c2ccccc2)s1)C(=O)O` as the entry.
**Result** 10.3
